assay: total protein half-life in vivo (active degradation + dilution); higher = more stable protein; conditions: E. coli NCM3722 delta-lon; growth: N-lim chemostat; doubling time 6 h
Reported total protein half-life in vivo values for the following sequences.
Answer format: numeric, h implied, no suffix.

Here are 2 sequences together with their reported answers.
>>> measured_value("MRLCDRDIEAWLDEGRLSINPRPPVERINGATVDVRLGNKFRTFRGHTAAFIDLSGPKDEVSAALDRVMSDEIVLDEGEAFYLHPGELALAVTLESVTLPADLVGWLDGRSSLARLGLMVHVTAHRIDPGWSGCIVLEFYNSGKLPLALRPGMLIGALSFEPLSGPAVRPYNRREDAKYRNQQGAVASRIDKD")
4.56
>>> measured_value("MATIKDVAKRANVSTTTVSHVINKTRFVAEETRNAVWAAIKELHYSPSAVARSLKVNHTKSIGLLATSSEAAYFAEIIEAVEKNCFQKGYTLILGNAWNNLEKQRAYLSMMAQKRVDGLLVMCSEYPEPLLAMLEEYRHIPMVVMDWGEAKADFTDAVIDNAFEGGYMAGRYLIERGHREIGVIPGPLERNTGAGRLAGFMKAMEEAMIKVPESWIVQGDFEPESGYRAMQQILSQPHRPTAVFCGGDIMAMGALCAADEMGLRVPQDVSLIGYDNVRNARYFTPALTTIHQPKDSLGETAFNMLLDRIVNKREEPQSIEVHPRLIERRSVADGPFRDYRR [P0ACP7]")
5.39

Field: next sequence
Query: Determine from records and report total protein half-life in vivo for MNLQHHFLIAMPALQDPIFRRSVVYICEHNTNGAMGIIVNKPLENLKIEGILEKLKITPEPRDESIRLDKPVMLGGPLAEDRGFILHTPPSNFASSIRISDNTVMTTSRDVLETLGTDKQPSDVLVALGYASWEKGQLEQEILDNAWLTAPADLNILFKTPIADRWREAAKLIGVDILTMPGVAGHA [P0A8W5]
Reply: 2.88

----------
assay: total protein half-life in vivo (active degradation + dilution); higher = more stable protein; details: E. coli NCM3722 delta-smpB; growth: N-lim chemostat; doubling time 6 h
Measurement Kind: total protein half-life in vivo (h)
Answer format: numeric, h implied, no suffix.

>>> measured_value("MANVEIYTKETCPYCHRAKALLSSKGVSFQELPIDGNAAKREEMIKRSGRTTVPQIFIDAQHIGGCDDLYALDARGGLDPLLK [P0AC62]")
5.71
>>> measured_value("MSDNIRVGLIGYGYASKTFHAPLIAGTPGQELAVISSSDETKVKADWPTVTVVSEPKHLFNDPNIDLIVIPTPNDTHFPLAKAALEAGKHVVVDKPFTVTLSQARELDALAKSLGRVLSVFHNRRWDSDFLTLKGLLAEGVLGEVAYFESHFDRFRPQVRDRWREQGGPGSGIWYDLAPHLLDQAITLFGLPVSMTVDLAQLRPGAQSTDYFHAILSYPQRRVILHGTMLAAAESARYIVHGSRGSYVKYGLDPQEERLKNGERLPQEDWGYDMRDGVLTRVEGEERVEETLLTVPGNYPAYYAAIRDALNGDGENPVPASQAIQVMELIELGIESAKHRATLCLA")
4.18
>>> measured_value("MSERLSITPLGPYIGAQISGADLTRPLSDNQFEQLYHAVLRHQVVFLRDQAITPQQQRALAQRFGELHIHPVYPHAEGVDEIIVLDTHNDNPPDNDNWHTDVTFIETPPAGAILAAKELPSTGGDTLWTSGIAAYEALSVPFRQLLSGLRAEHDFRKSFPEYKYRKTEEEHQRWREAVAKNPPLLHPVVRTHPVSGKQALFVNEGFTTRIVDVSEKESEALLSFLFAHITKPEFQVRWRWQPNDIAIWDNRVTQHYANADYLPQRRIMHRATILGDKPFYRAG")
2.36
>>> measured_value("MANWLNQLQSLLGQSSSSTSSSADQGLVKLLVPGALGGLAGLLVANKSARKLLTKYGTNALLVGGGAVAGTVLWNKYKDKIRAAHQDEPQFGAQSTPLDERTARLILALVFAAKSDGHIDAKERAAIDQQLRGAGVEEQGRVLIEQAIEQPLDPQRLATGVRNEEEALEIYFLSCAAIDIDHFMERSYLNALGDALKIPQDVRDGIERDLEQQKRTLAE")
4.47
>>> measured_value("MTVRVAINGFGRIGRNVVRALYESGRRAEITVVAINELADAAGMAHLLKYDTSHGRFAWEVRQERDQLFVGDDAIRVLHERSLQSLPWRELGVDVVLDCTGVYGSREHGEAHIAAGAKKVLFSHPGSNDLDATVVYGVNQDQLRAEHRIVSNASCTTNCIIPVIKLLDDAYGIESGTVTTIHSAMHDQQVIDAYHPDLRRTRAASQSIIPVDTKLAAGITRFFPQFNDRFEAIAVRVPTINVTAIDLSVTVKKPVKANEVNLLLQKAAQGAFHGIVDYTELPLVSVDFNHDPHSAIVDGTQTRVSGAHLIKTLVWCDNEWGFANRMLDTTLAMATVAFR [P0A9B6]")
3.65
>>> measured_value("MVTINNARKILQRVDTLPLYLHAYAFHLNMRLERVLPADLLDIASENNLRGVKIHVLDGERFSLGNMDDKELSAFGDKARRLNLDIHIETSASDKASIDEAVAIALKTGASSVRFYPRYEGNLRDVLSIIANDIAYVRETYQDSGLTFTIEQHEDLKSHELVSLVKESEMESLSLLFDFANMINANEHPIDALKTMAPHITQVHIKDALIVKEPGGLGHKACISGQGDMPFKALLTHLICLGDDEPQVTAYGLEEEVDYYAPAFRFEDEDDNPWIPYRQMSETPLPENHLLDARLRKEKEDAINQINHVRNVLQQIKQEANHLLNH")
1.68

Query: Determine from records and report total protein half-life in vivo for MNIYTFDFDEIESQEDFYRDFSQTFGLAKDKVRDLDSLWDVLMNDVLPLPLEIEFVHLGEKTRRRFGALILLFDEAEEELEGHLRFNVRH
Reply: 4.41

Query: Determine from records and report total protein half-life in vivo for MNDAIPRPQAKTRKALTPLLEIRNLTKSYDGQHAVDDVSLTIYKGEIFALLGASGCGKSTLLRMLAGFEQPSAGQIMLDGVDLSQVPPYLRPINMMFQSYALFPHMTVEQNIAFGLKQDKLPKAEIASRVNEMLGLVHMQEFAKRKPHQLSGGQRQRVALARSLAKRPKLLLLDEPMGALDKKLRDRMQLEVVDILERVGVTCVMVTHDQEEAMTMAGRIAIMNRGKFVQIGEPEEIYEHPTTRYSAEFIGSVNVFEGVLKERQEDGLVLDSPGLVHPLKVDADASVVDNVPVHVALRPEKIMLCEEPPANGCNFAVGEVIHIAYLGDLSVYHVRLKSGQMISAQLQNAHRHRKGLPTWGDEVRLCWEVDSCVVLTV
Reply: 5.84

Query: Determine from records and report total protein half-life in vivo for MPELPEVETSRRGIEPHLVGATILHAVVRNGRLRWPVSEEIYRLSDQPVLSVQRRAKYLLLELPEGWIIIHLGMSGSLRILPEELPPEKHDHVDLVMSNGKVLRYTDPRRFGAWLWTKELEGHNVLTHLGPEPLSDDFNGEYLHQKCAKKKTAIKPWLMDNKLVVGVGNIYASESLFAAGIHPDRLASSLSLAECELLARVIKAVLLRSIEQGGTTLKDFLQSDGKPGYFAQELQVYGRKGEPCRVCGTPIVATKHAQRATFYCRQCQK
Reply: 5.63

Query: Determine from records and report total protein half-life in vivo for MTVKQTVEITNKLGMHARPAMKLFELMQGFDAEVLLRNDEGTEAEANSVIALLMLDSAKGRQIEVEATGPQEEEALAAVIALFNSGFDED [P0A9N0]
Reply: 2.09

Query: Determine from records and report total protein half-life in vivo for MRTVKVFEEAWPLHTPFVIARGSRSEARVVVVELEEEGIKGTGECTPYPRYGESDASVMAQIMSVVPQLEKGLTREELQKILPAGAARNALDCALWDLAARRQQQSLADLIGITLPETVITAQTVVIGTPDQMANSASTLWQAGAKLLKVKLDNHLISERMVAIRTAVPDATLIVDANESWRAEGLAARCQLLADLGVAMLEQPLPAQDDAALENFIHPLPICADESCHTRSNLKALKGRYEMVNIKLDKTGGLTEALALATEARAQGFSLMLGCMLCTSRAISAALPLVPQVSFADLDGPTWLAVDVEPALQFTTGELHL
Reply: 4.33

----------
Reported total protein half-life in vivo values for the following sequences.
experiment: total protein half-life in vivo (active degradation + dilution); higher = more stable protein; conditions: E. coli NCM3722 delta-clpP; growth: N-lim chemostat; doubling time 6 h
Answer format: numeric, h implied, no suffix.

Here are 5 sequences together with their reported answers.
>>> measured_value("MFDIGFSELLLVFIIGLVVLGPQRLPVAVKTVAGWIRALRSLATTVQNELTQELKLQEFQDSLKKVEKASLTNLTPELKASMDELRQAAESMKRSYVANDPEKASDEAHTIHNPVVKDNEAAHEGVTPAAAQTQASSPEQKPETTPEPVVKPAADAEPKTAAPSPSSSDKP")
5.27
>>> measured_value("MKTPLVTREGYEKLKQELNYLWREERPEVTKKVTWAASLGDRSENADYQYNKKRLREIDRRVRYLTKCLENLKIVDYSPQQEGKVFFGAWVEIENDDGVTHRFRIVGYDEIFGRKDYISIDSPMARALLKKEVGDLAVVNTPAGEASWYVNAIEYVKP")
3.85
>>> measured_value("MEQRRLASTEWVDIVNEENEVIAQASREQMRAQCLRHRATYIVVHDGMGKILVQRRTETKDFLPGMLDATAGGVVQADEQLLESARREAEEELGIAGVPFAEHGQFYFEDKNCRVWGALFSCVSHGPFALQEDEVSEVCWLTPEEITARCDEFTPDSLKALALWMKRNAKNEAVETETAE")
4.78
>>> measured_value("MAKYNEKELADTSKFLSFVLRHKPEAIGIVLDREGWADIDKLILCAQKAGKRLTRALLDTVVATSDKKRFSYSSDGRCIRAVQGHSTSQVAISFAEKTPPQFLYHGTASRFLDEIKKQGLIAGERHYVHLSADEATARKVGARHGSPVILTVKAQEMAKRGLPFWQAENGVWLTSTVAVEFLEW")
1.59
>>> measured_value("MKIVIAPDSFKESLSAEKCCQAIKAGFSTLFPDANYICLPIADGGEGTVDAMVAATGGNIVTLEVCGPMGEKVNAFYGLTGDGKTAVIEMAAASGLMLVAPEKRNPLLASSFGTGELIRHALDNDIRHIILGIGGSATVDGGMGMAQALGVRFLDADGQALAANGGNLARVASIEMDECDPRLANCHIEVACDVDNPLVGARGAAAVFGPQKGATPEMVEELEQGLQNYARVLQQQTEINVCQMAGGGAAGGMGIAAAVFLNADIKPGIEIVLNAVNLAQAVQGAALVITGEGRIDSQTAGGKAPLGVASVAKQFNVPVIGIAGVLGDGVEVVHQYGIDAVFSILPRLAPLAEVLASGETNLFNSARNIACAIKIGQGIKN")
4.58

Field: next sequence
Query: Determine from records and report total protein half-life in vivo for MRYHGDMLLTTPVISTLKQNYPDAKIDMLLYQDTIPILSENPEINALYGISNKGAGTFDKIKNVLSLIKTLRANNYDLVINLTDQWMVALLVRCLPARMKISQLYGHRQHGIWKKSFTHLAPIHGTHIVERNLSVLEPLGITDFYTDTTMSYAEDCWKKMRRELDALGVKDHYVVIQPTARQIFKCWDNDKFSKVIDALQQRGYQVVLTCGPSADDLACVDEIARGCETKPITGLAGKTRFPELGALIDHAVLFIGVDSAPGHIAAAVKTPVISLFGATDHVFWRPWTENIIQFWAGNYQKMPTRHELDRNKKYLSVIPAEDVIAATEKLLPEDAPSADRNAQL
Reply: 6.21
